Molecular target: Estrogen receptor (Homo sapiens)
Assay: OT_ER_ERaERa_0480: Odyssey Thera (OT) 8-hour HEK293T Protein-Complementation Assay for Estrogen Receptor-alpha/-alpha Homodimer (AID 2283351);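 also: rise in fluorescence from reassembled reporter fragments on ERα LBD homodimer in nucleus or whole cell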
Results filed as inconclusive are left out. Active and inactive are the calls of the source. The calls were made as follows: active = hit-call score of the fitted dose curve at least 0.9, where 1 is the maximum; inconclusive = response in the unintended direction; inactive = score below 0.9.
Please reply with one of these outcomes: active, inactive

compound: C=C1C2CCC(C2)C1(C)C (stereo not drawn)
study system: Estrogen receptor (Homo sapiens)
class label: inactive

Enquiry: Could you kindly confirm the outcome this assay logged for `O=S(=O)(O)c1ccccc1C=Cc1ccc(-c2ccc(C=Cc3ccccc3S(=O)(=O)O)cc2)cc1` ?
Return: inactive

Enquiry: For `CCCCCCCCCCOS(=O)(=O)O` , which call appears in the assay record?
Return: inactive

Enquiry: What outcome does the record of this test show for `CN(C)c1ccc(N=Nc2ccccc2C(=O)O)cc1` ?
Return: inactive

Enquiry: Outcome logged for CCCCCCC1(C)CCC(=O)O1 (stereo not drawn) in this assay:
Return: inactive

Enquiry: For this compound, state the assay outcome: `CN(C)c1ccc(C(=N)c2ccc(N(C)C)cc2)cc1`
Return: active

====

Biological target: Nuclear receptor subfamily 1 group I member 2 (Homo sapiens)
Assay: ATG_PXR_TRANS: Attagene TRANS-FACTORIAL HepG2 Assay for human Pregnane X Receptor (PXR) (AID 2283008)
Records with an inconclusive call do not appear. Activity calls are given as the source filed them. The calls were made as follows: active = hit-call score of the fitted dose curve at least 0.9, where 1 is the maximum; inconclusive = response in the unintended direction; inactive = score below 0.9.
assay endpoint: AC50

Some compounds with recorded AC50:
compound: CC1=NC(C)OC1C (stereo unspecified)
AC50: 19.8 µM (active)
--
compound: CC[C@H]1OC(=O)[C@H](C)[C@@H](O[C@H]2C[C@@](C)(OC)[C@@H](O)[C@H](C)O2)[C@H](C)[C@@H](O[C@@H]2O[C@H](C)C[C@H](N(C)C)[C@H]2O)[C@](C)(O)C[C@@H](C)C(=NOCOCCOC)[C@H](C)[C@@H](O)[C@]1(C)O
AC50: inactive
--
compound: CC(C)(c1cc(Br)c(OCCO)c(Br)c1)c1cc(Br)c(OCCO)c(Br)c1
AC50: 1.71 µM (active)
--
compound: C=CCOCC(O)CCl (stereo unspecified)
AC50: 47.2 µM (active)
--
compound: c1cc(N(CC2CO2)CC2CO2)ccc1OCC1CO1 (stereo unspecified)
AC50: inactive

Here is another compound to look at.
Enquiry: Lab note: Nuclear receptor subfamily 1 group I member 2 (Homo sapiens) assay, enter AC50 for `C=C(C)C(=O)OCCO` here
Return: inactive

====

Experiment: ATG_DR4_LXR_CIS: Attagene CIS-FACTORIAL HepG2 Assay for human Liver X Receptor (LXR), DR4 submotif (AID 2282929)
Settings: HepG2 Attagene DR4 cis-reporter, mRNA transcription; actives raise or lower the signal
Calls of active or inactive are those of the source. The calls were made as follows: active = hit-call score of the fitted dose curve at least 0.9, where 1 is the maximum; inactive = score below 0.9.
Classes to choose from: YES for active, NO for inactive

compound: O=C(O)CCCC[C@@H]1SC[C@@H]2NC(=O)N[C@@H]21
class label: NO

Enquiry: Per the records of this test, what outcome belongs to `O=C(O)c1ccccc1Nc1cccc(C(F)(F)F)c1` ?
Return: YES

Enquiry: So what was the verdict on OC1OCCOC1O (centres undefined) in this test?
Return: NO

Enquiry: Assay outcome for CC(C)=CCCC(C)C=O (centres undefined) : what was it?
Return: NO

Enquiry: Entry `CCCCCCCC/C=C\CCCCCCCC(=O)OCCO` : call = ?
Return: YES

Enquiry: What is the recorded call for this compound in the test? `CC1=CC[C@H](C(C)C)C=C1`
Return: NO

Enquiry: Can you look up the reported call for `C=CC=CC=CCCCCC` for me?
Return: NO

Enquiry: Outcome logged for `FC(F)(F)C(=NOCC1OCCO1)c1ccc(Cl)cc1` in this assay:
Return: YES

Enquiry: For this compound, state the assay outcome: CO[Si](CCC1CCC2OC2C1)(OC)OC (centres undefined)
Return: NO

Enquiry: State the result this test recorded for `NC(CO)(CO)CO` .
Return: NO
